Reported IC50 values follow for various compounds
- subject_of_test: PI3Kalpha (PIK3CA/PIK3R1, p110 alpha/p85 alpha) (Homo sapiens, UniProt P42336)
- Construct: recombinant human, full length, N-terminal His-tagged phosphoinositide-3-kinase catalytic subunit alpha polypeptide; His (N); purchased Invitrogen Corp. PV4788; host or cells: insect cells
- Sequence (P42336 whole entry): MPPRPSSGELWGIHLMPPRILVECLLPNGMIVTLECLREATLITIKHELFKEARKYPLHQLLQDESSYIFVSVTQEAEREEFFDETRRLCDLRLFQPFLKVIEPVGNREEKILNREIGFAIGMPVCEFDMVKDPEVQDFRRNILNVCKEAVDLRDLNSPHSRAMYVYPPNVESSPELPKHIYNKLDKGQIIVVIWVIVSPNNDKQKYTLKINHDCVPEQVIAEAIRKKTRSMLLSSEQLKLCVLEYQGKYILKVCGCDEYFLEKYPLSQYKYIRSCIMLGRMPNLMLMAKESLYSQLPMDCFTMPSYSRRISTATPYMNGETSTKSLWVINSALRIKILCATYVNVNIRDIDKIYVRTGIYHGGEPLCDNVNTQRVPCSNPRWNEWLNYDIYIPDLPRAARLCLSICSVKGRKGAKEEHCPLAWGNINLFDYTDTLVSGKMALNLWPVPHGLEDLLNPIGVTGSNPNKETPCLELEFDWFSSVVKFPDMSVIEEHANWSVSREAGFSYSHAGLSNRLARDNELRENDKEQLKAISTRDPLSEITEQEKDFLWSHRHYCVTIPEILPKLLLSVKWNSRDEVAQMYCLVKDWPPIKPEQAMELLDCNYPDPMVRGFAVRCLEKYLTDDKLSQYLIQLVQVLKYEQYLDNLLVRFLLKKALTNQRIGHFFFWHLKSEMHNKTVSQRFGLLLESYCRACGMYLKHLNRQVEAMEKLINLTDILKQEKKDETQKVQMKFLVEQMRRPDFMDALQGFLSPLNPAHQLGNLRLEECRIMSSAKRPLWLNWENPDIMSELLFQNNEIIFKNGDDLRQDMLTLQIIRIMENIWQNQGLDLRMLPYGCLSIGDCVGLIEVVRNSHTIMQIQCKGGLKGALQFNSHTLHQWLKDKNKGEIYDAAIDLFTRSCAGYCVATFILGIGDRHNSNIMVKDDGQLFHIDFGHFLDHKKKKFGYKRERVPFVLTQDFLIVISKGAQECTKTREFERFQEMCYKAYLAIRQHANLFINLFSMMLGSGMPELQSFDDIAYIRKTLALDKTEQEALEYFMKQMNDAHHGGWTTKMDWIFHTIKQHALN
- Sequence (P27986 whole entry partner): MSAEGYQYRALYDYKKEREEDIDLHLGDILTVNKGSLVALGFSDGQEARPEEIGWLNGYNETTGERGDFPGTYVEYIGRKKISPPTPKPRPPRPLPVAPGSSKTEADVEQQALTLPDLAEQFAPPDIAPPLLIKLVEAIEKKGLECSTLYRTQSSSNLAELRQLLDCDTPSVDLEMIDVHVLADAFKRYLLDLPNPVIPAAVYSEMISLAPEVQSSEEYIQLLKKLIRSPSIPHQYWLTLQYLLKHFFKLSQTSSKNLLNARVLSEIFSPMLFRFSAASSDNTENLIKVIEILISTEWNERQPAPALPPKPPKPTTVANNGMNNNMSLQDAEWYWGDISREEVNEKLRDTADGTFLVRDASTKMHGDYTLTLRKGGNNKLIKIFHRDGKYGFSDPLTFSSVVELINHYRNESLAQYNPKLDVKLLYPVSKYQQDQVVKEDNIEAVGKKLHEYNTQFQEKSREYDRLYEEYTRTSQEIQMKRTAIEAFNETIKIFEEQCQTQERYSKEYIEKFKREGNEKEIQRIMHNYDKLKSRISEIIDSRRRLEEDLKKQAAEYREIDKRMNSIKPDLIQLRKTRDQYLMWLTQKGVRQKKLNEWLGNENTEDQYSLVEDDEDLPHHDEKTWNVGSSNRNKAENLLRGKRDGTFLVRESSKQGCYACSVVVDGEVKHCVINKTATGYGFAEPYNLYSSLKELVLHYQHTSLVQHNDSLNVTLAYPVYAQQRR
- method_description: Adapta universal kinase assay, inhibition of PI3Kalpha (Example B)
- Format: biochemical
- applied_conditions: Table 1; 25 μM ATP; read-out: IC50 (nM) PI3Kα
- Procedure: In contrast to ATP depletion assays, the Adapta™ assay is extremely sensitive to ADP formation such that a majority of the signal change occurs in the first 10-20% conversion of ATP to ADP. […] ADP formation is determined by calculating the emission ratio from the assay well. The emission ratio is calculated by dividing the intensity of the tracer (acceptor) emission by the intensity of the Eu (donor) emission at 615 nm as shown in the equation below. […]

Request body: readout IC50, system PI3Kalpha (PIK3CA/PIK3R1, p110 alpha/p85 alpha) (Homo sapiens, UniProt P42336), query CC(=O)Nc1nc2ccc(-c3ccc4c(c3)NC(=O)CNC4=O)cc2s1 [Example 21] . Return the value.
> 1000 nM

Repeat for the following compound: CC(=O)Nc1nc2ccc(-c3ccc(NS(C)(=O)=O)cc3)nc2s1 [Example 29]
100 to 1000 nM

Repeat for the following compound: CC(=O)Nc1nc2ccc(-c3cccc4[nH]ccc34)cc2s1 [Example 14]
> 1000 nM

Repeat for the following compound: CC(=O)Nc1nc2ccc(-c3ccc4[nH]cc(C#N)c4c3)cc2s1 [Example 16]
> 1000 nM
